Measured CC50 at 3 days, listed per entry.
# ASSAY_PROCEDURE: Cell growth inhibition in HEL299 cells, Coulter Counter
# Type: cell-based
# ASSAY_SETUP: human, 3 days of cell growth, read-out: Cytotoxicity Cell Growth (CC50)

Below are worked cases with known answers.
- COMPOUND: "O=c1[nH]c(=O)n([C@H]2C[C@H](O)[C@@H](CO)O2)cc1/C=C/Br [Brivudine, reference compound]"
  RECORDED_VALUE: "> 100 µM"
- COMPOUND: "COc1ccc(C(OC[C@H]2O[C@@H](n3ccc4nc5cc(OC)ccc5n4c3=O)[C@H](O)[C@@H]2O)(c2ccccc2)c2ccc(OC)cc2)cc1"
  RECORDED_VALUE: "10.3 µM"

The value of CC50 at 3 days measured for the compound Nc1nc2c(ncn2COCCO)c(=O)[nH]1 [Aciclovir, reference compound] turned out to be > 100 µM

The value of CC50 at 3 days measured for the compound "COc1ccc(C(OC[C@H]2O[C@@H](n3ccc4nc5cc(OC)ccc5n4c3=O)C[C@@H]2O)(c2ccccc2)c2ccc(OC)cc2)cc1" turned out to be > 100 µM

* * *

# System: HCoV NL63
# ASSAY_PROCEDURE: Cytopathic effect reduction, HCoV NL63
# Type: cell-based, Human coronavirus NL63
# ASSAY_SETUP: Human coronavirus NL63; reduction of virus-induced cytopathic effect by 50%; virus input 100 TCID50; read-out: Antiviral Activity (EC50) HCoV NL63
Measured EC50, listed per entry.

Below are worked cases with known answers.
- COMPOUND: "CCCCCCCCCCCCOc1ccc2c(c1)nc1cc[nH]c(=O)n12 [Compound 6e]"
  QUANTITY_KIND: "EC50"
  RECORDED_VALUE: "> 100 µM"
- COMPOUND: "O=c1n([C@@H]2O[C@H](CO)[C@@H](O)[C@H]2O)ccc2nc3cc(O)ccc3n12 [Compound 2b]"
  QUANTITY_KIND: "EC50"
  RECORDED_VALUE: "> 100 µM"
- COMPOUND: "CCCCCCCCCCOc1ccc2c(c1)nc1cc[nH]c(=O)n12 [Compound 6d]"
  QUANTITY_KIND: "EC50"
  RECORDED_VALUE: "> 100 µM"
- COMPOUND: "CCCCCCOc1ccc2c(c1)nc1cc[nH]c(=O)n12 [Compound 6b]"
  QUANTITY_KIND: "EC50"
  RECORDED_VALUE: "> 100 µM"
- COMPOUND: "CCCCOc1ccc2c(c1)nc1cc[nH]c(=O)n12 [Compound 6a]"
  QUANTITY_KIND: "EC50"
  RECORDED_VALUE: "> 100 µM"

Switching to the query record.
The reported EC50 value, HCoV NL63, for CCC(CC)COC(=O)[C@H](C)N[P@](=O)(OC[C@H]1O[C@@](C#N)(c2ccc3c(N)ncnn23)[C@H](O)[C@@H]1O)Oc1ccccc1 [Remdesivir, reference compound] reads 0.03 µM

* * *

# System: HEL299 cells
# ASSAY_SETUP: minimum cytotoxic concentration, microscopically detectable alteration of cell morphology
Measured Cytotoxicity Cell Morphology (MCC), listed per entry.
Write the number in μM without appending the unit.

The reported Cytotoxicity Cell Morphology (MCC) value, HEL299 cells, for COc1ccc(C(OC[C@H]2O[C@@H](n3ccc4nc5cc(O)ccc5n4c3=O)C[C@@H]2O)(c2ccccc2)c2ccc(OC)cc2)cc1 [Compound 3a] reads 20

The reported Cytotoxicity Cell Morphology (MCC) value, HEL299 cells, for COc1ccc2c(c1)nc1ccn([C@@H]3O[C@H](CO)[C@@H](O)[C@H]3O)c(=O)n12 [Compound 8b] reads 100

The reported Cytotoxicity Cell Morphology (MCC) value, HEL299 cells, for COc1ccc(C(OC[C@H]2O[C@@H](n3ccc4nc5cc(OC)ccc5n4c3=O)C[C@@H]2O)(c2ccccc2)c2ccc(OC)cc2)cc1 [Compound 7a] reads 100

* * *

Measured CC50, listed per entry.
# Tested on: HEL299 cells
# ASSAY_PROCEDURE: Cytotoxicity in HEL299 cells, MTS assay
# Format: cell-based, Human
# ASSAY_SETUP: cell growth reduced by 50%

Below are worked cases with known answers.
- CPD_SMILES: "CCCCCCCCOc1ccc2c(c1)nc1ccn([C@@H]3O[C@H](COC(c4ccccc4)(c4ccc(OC)cc4)c4ccc(OC)cc4)[C@@H](O)[C@H]3O)c(=O)n12"
  CC50: "> 100 µM"
- CPD_SMILES: "CCCCCCCCCCCCOc1ccc2c(c1)nc1ccn([C@@H]3O[C@H](COC(c4ccccc4)(c4ccc(OC)cc4)c4ccc(OC)cc4)[C@@H](O)[C@H]3O)c(=O)n12"
  CC50: "> 100 µM"
- CPD_SMILES: "CCCCOc1ccc2c(c1)nc1ccn([C@H]3C[C@H](O)[C@@H](COC(c4ccccc4)(c4ccc(OC)cc4)c4ccc(OC)cc4)O3)c(=O)n12"
  CC50: "> 40 µM"
- CPD_SMILES: "CCCCCCCCCCCCOc1ccc2c(c1)nc1ccn([C@H]3C[C@H](O)[C@@H](COC(c4ccccc4)(c4ccc(OC)cc4)c4ccc(OC)cc4)O3)c(=O)n12"
  CC50: "> 100 µM"
- CPD_SMILES: "CCCCOc1ccc2c(c1)nc1ccn([C@@H]3O[C@H](COC(c4ccccc4)(c4ccc(OC)cc4)c4ccc(OC)cc4)[C@@H](O)[C@H]3O)c(=O)n12"
  CC50: "> 100 µM"

The value of CC50 measured for the molecule "CCCCCCOc1ccc2c(c1)nc1ccn([C@@H]3O[C@H](COC(c4ccccc4)(c4ccc(OC)cc4)c4ccc(OC)cc4)[C@@H](O)[C@H]3O)c(=O)n12" turned out to be > 100 µM

The value of CC50 measured for the molecule "CCCCCCCCOc1ccc2c(c1)nc1ccn([C@H]3C[C@H](O)[C@@H](COC(c4ccccc4)(c4ccc(OC)cc4)c4ccc(OC)cc4)O3)c(=O)n12" turned out to be > 40 µM

The value of CC50 measured for the molecule "CCCCCCOc1ccc2c(c1)nc1ccn([C@H]3C[C@H](O)[C@@H](COC(c4ccccc4)(c4ccc(OC)cc4)c4ccc(OC)cc4)O3)c(=O)n12" turned out to be > 100 µM

The value of CC50 measured for the molecule "CCCCCCCCCCOc1ccc2c(c1)nc1ccn([C@@H]3O[C@H](COC(c4ccccc4)(c4ccc(OC)cc4)c4ccc(OC)cc4)[C@@H](O)[C@H]3O)c(=O)n12" turned out to be > 100 µM

The value of CC50 measured for the molecule "CCCCCCCCCCOc1ccc2c(c1)nc1ccn([C@H]3C[C@H](O)[C@@H](COC(c4ccccc4)(c4ccc(OC)cc4)c4ccc(OC)cc4)O3)c(=O)n12" turned out to be > 40 µM

* * *

# Tested on: HCoV OC43
# ASSAY_PROCEDURE: Cytopathic effect reduction, HCoV OC43
# Type: cell-based, Human coronavirus OC43
# ASSAY_SETUP: Betacoronavirus 1, OC43; reduction of virus-induced cytopathic effect by 50%; virus input 100 TCID50; read-out: Antiviral Activity (EC50) HCoV OC43
Measured EC50, listed per entry.

Below are worked cases with known answers.
- COMPOUND: "CCCCCCCCCCCCOc1ccc2c(c1)nc1cc[nH]c(=O)n12 [Compound 6e]"
  EC50: "> 100 µM"
- COMPOUND: "CCCCCCCCOc1ccc2c(c1)nc1cc[nH]c(=O)n12 [Compound 6c]"
  EC50: "> 100 µM"
- COMPOUND: "COc1ccc(C(OC[C@H]2O[C@@H](n3ccc4nc5cc(O)ccc5n4c3=O)C[C@@H]2O)(c2ccccc2)c2ccc(OC)cc2)cc1 [Compound 3a]"
  EC50: "< 0.8 µM"

The value of EC50 measured for the compound COc1ccc(C(OC[C@H]2O[C@@H](n3ccc4nc5cc(O)ccc5n4c3=O)[C@H](O)[C@@H]2O)(c2ccccc2)c2ccc(OC)cc2)cc1 [Compound 3b] turned out to be < 0.8 µM

The value of EC50 measured for the compound CCCCOc1ccc2c(c1)nc1cc[nH]c(=O)n12 [Compound 6a] turned out to be > 100 µM

* * *

# Tested on: SARS-CoV-2 UC-1074 (Wuhan)
# ASSAY_PROCEDURE: Cytopathic effect reduction, SARS-CoV-2 UC-1074 (Wuhan) in Vero cells
# Format: cell-based
# ASSAY_SETUP: Severe acute respiratory syndrome coronavirus 2, UC1074, CPE reduced by 50%, 100 TCID50, read-out: Antiviral Activity (EC50) UC-1074 (Wuhan)
Measured EC50, listed per entry.

Below are worked cases with known answers.
- MOLECULE: "COc1ccc(C(OC[C@H]2O[C@@H](n3ccc(N)nc3=O)C[C@@H]2O)(c2ccccc2)c2ccc(OC)cc2)cc1"
  EC50: "> 100 µM"
- MOLECULE: "COc1ccc(C(OC[C@H]2O[C@@H](n3ccc(N)nc3=O)[C@H](O)[C@@H]2O)(c2ccccc2)c2ccc(OC)cc2)cc1"
  EC50: "> 20 µM"
- MOLECULE: "COc1ccc(C(OC[C@H]2O[C@@H](n3ccc4nc5cc(O)ccc5n4c3=O)C[C@@H]2O)(c2ccccc2)c2ccc(OC)cc2)cc1"
  EC50: "8.82 µM"
- MOLECULE: "COc1ccc(C(OC[C@H]2O[C@@H](n3ccc4nc5cc(OC)ccc5n4c3=O)[C@H](O)[C@@H]2O)(c2ccccc2)c2ccc(OC)cc2)cc1"
  EC50: "> 20 µM"
- MOLECULE: "COc1ccc2c(c1)nc1ccn([C@H]3C[C@H](O)[C@@H](CO)O3)c(=O)n12"
  EC50: "> 20 µM"

The value of EC50 measured for the molecule "CC(C)C(=O)OC[C@H]1O[C@@H](n2ccc(NO)nc2=O)[C@H](O)[C@@H]1O" turned out to be 5.52 µM

The value of EC50 measured for the molecule "COc1ccc(C(OC[C@H]2O[C@@H](n3ccc4nc5cc(OC)ccc5n4c3=O)C[C@@H]2O)(c2ccccc2)c2ccc(OC)cc2)cc1" turned out to be > 20 µM

The value of EC50 measured for the molecule CCC(CC)COC(=O)[C@H](C)N[P@](=O)(OC[C@H]1O[C@@](C#N)(c2ccc3c(N)ncnn23)[C@H](O)[C@@H]1O)Oc1ccccc1 [Remdesivir, reference compound] turned out to be 1.96 µM

The value of EC50 measured for the molecule "COc1ccc2c(c1)nc1ccn([C@@H]3O[C@H](CO)[C@@H](O)[C@H]3O)c(=O)n12" turned out to be > 20 µM

The value of EC50 measured for the molecule "COc1ccc(C(OC[C@H]2O[C@@H](n3ccc4nc5cc(O)ccc5n4c3=O)[C@H](O)[C@@H]2O)(c2ccccc2)c2ccc(OC)cc2)cc1" turned out to be > 20 µM
